# Tested on: HCT-116 cells
# PROTOCOL TEXT: Sensitizing of HCT-116 cells to topotecan by Tdp1 inhibitors
# Type: cell-based, human
# REPORTED CONDITIONS: human, 72 h, 20 µM
# Method: The potential for sensitizing the cancer cell lines to topotecan using the Tdp1 inhibitors was investigated using the MTT assay. […] Nontoxic concentrations of the adamantane derivatives (5 μM) were used for the HeLa cell line; the dose response for topotecan was measured and the corresponding CC50 values were derived, and the results are shown in Figure 4 for 20c and in Table 2 for all the derivatives. […]
Reported values of HCT116 CC50 of topotecan with Tdp1 inhibitor for individual entries

Reference set, count: 3
# COMPOUND, RESULT
rows = [
    ("CC(C)=CCC[C@H](C)CCSc1n[nH]c(C23CC4CC(CC(C4)C2)C3)n1 [20b]", "575.3 (20) nM"),
    ("CC(C)CCCC(C)CCSc1n[nH]c(C23CC4CC(CC(C4)C2)C3)n1 (stereo not shown) [20a]", "650.0 (20) nM"),
    ("CC1(C)[C@H]2CC=C(CCSc3n[nH]c(C45CC6CC(CC(C6)C4)C5)n3)[C@@H]1C2 [20g]", "235.8 (20) nM"),
]

The compound identified as CC(C)=CCCC(C)CC(=O)Nc1nnc(C23CC4CC(CC(C4)C2)C3)s1 (stereo not shown) [25b] registered its HCT116 CC50 of topotecan with Tdp1 inhibitor at 611.9 (20) nM
